assay: Caco-2 permeability (Papp); format: in vitro ADME; conditions: human; Caco-2 assay, standard concentration 10 μM
Assay metric: Papp at 120 min, 10 μM (nm/s)
The answer is to be given in nm/s; state only the numeric part.

QUERY: Please give the documented Papp at 120 min, 10 μM of CC(C)C[C@H](NC(=O)c1ccc(-c2nc(N3CCN(C)CC3)sc2F)cc1)C(=O)N1C[C@@H](Cl)[C@H]2OCC(=O)[C@H]21
RESULT: 100

Now consider the entry below.
QUERY: Please give the documented Papp at 120 min, 10 μM of CC(C)C[C@H](NC(=O)c1ccc(-c2csc(N3CCN(C)CC3)n2)c(F)c1)C(=O)N1C[C@@H](Cl)[C@H]2OCC(=O)[C@H]21
RESULT: 52

* * *

target: human cathepsin L (Homo sapiens); assay: Cathepsin L Ki; type: biochemical; settings: Table 1, class symbols
Sequence (P07711 114-333): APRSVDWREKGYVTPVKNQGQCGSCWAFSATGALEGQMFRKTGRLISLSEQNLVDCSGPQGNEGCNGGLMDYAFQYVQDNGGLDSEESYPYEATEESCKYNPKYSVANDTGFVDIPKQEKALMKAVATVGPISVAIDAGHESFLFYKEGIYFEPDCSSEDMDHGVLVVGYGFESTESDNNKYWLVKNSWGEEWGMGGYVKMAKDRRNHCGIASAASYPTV
Assay metric: Ki

// below: answered compounds
QUERY: Please give the documented Ki of CN1CCN(c2nc(-c3ccc(C(=O)N[C@@H](CC(C)(C)F)C(=O)N4C[C@@H](Cl)[C@H]5OCC(=O)[C@H]54)cc3)cs2)CC1 [Example 8]
RESULT: 1000 to 5000 nM

QUERY: Please give the documented Ki of CC(C)C[C@H](NC(=O)c1ccc(-c2nc(N3CCN(C)CC3)sc2F)cc1)C(=O)N1C[C@@H](Cl)[C@H]2OCC(=O)[C@H]21 [Example 12]
RESULT: 1000 to 5000 nM

QUERY: Please give the documented Ki of CC(C)C[C@H](NC(c1ccc(-c2ccc(S(C)(=O)=O)cc2)cc1)C(F)(F)F)C(=O)N1C[C@@H](Cl)[C@H]2OCC(=O)[C@H]21 (stereo in doubt) [Example 13]
RESULT: 1000 to 5000 nM

Others:
QUERY: Please give the documented Ki of CN1CCN(c2nc(-c3ccc(C(=O)N[C@H](C(=O)N4C[C@@H](Cl)[C@H]5OCC(=O)[C@H]54)C4CCCCC4)cc3)cs2)CC1 [Example 7]
RESULT: 1000 to 5000 nM

QUERY: Please give the documented Ki of Cc1sc(N2CCN(C)CC2)nc1-c1ccc(C(=O)N[C@@H](CC(C)C)C(=O)N2C[C@@H](Cl)[C@H]3OCC(=O)[C@H]32)cc1 [Example 5]
RESULT: 501 to 1000 nM

QUERY: Please give the documented Ki of CC(C)C[C@H](NC(=O)c1ccc(-c2csc(N3CCN(C)CC3)n2)c(F)c1)C(=O)N1C[C@@H](Cl)[C@H]2OCC(=O)[C@H]21 [Example 10]
RESULT: 50 to 500 nM

QUERY: Please give the documented Ki of CC(C)C[C@H](NC(=O)c1ccc(-c2csc(N3CCN(C)CC3)n2)cc1)C(=O)N1C[C@@H](Cl)[C@H]2OCC(=O)[C@H]21 [Example 6]
RESULT: 501 to 1000 nM

* * *

Molecular target: baculovirus-expressed human cathepsin S (Homo sapiens)
Construct: made in house
Sequence (P25774 115-331): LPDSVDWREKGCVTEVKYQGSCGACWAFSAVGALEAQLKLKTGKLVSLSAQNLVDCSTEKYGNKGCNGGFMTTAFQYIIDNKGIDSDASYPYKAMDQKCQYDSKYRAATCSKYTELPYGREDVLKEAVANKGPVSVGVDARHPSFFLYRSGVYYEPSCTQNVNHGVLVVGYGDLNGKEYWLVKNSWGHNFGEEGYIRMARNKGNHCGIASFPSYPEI
Test: Cathepsin S Ki determination
Assay type: biochemical
Conditions: Table 1, class symbols
Procedure: 280 μl/well of 12.5% DMSO are added to rows B-H of two columns of a 96 deep well polypropylene plate. […] Add 90 μl assay buffer containing 1 mM DTT and 2 nM cathepsin S to each well of rows B-H and 180 μl to row A. Mix row A using a multichannel pipette and double dilute to row G. Mix row H and read in the fluorescent spectrophotometer. […] Using the a distributor such as a Multidrop 384, add 30 μl/well to all wells of the assay plate and read in fluorescent spectrophotomoter such as an Ascent. […]
Recorded Ki, one value per entry.

// below: answered compounds
QUERY: Please give the documented Ki of Cc1sc(N2CCN(C)CC2)nc1-c1ccc(C(=O)N[C@@H](CC(C)C)C(=O)N2C[C@@H](Cl)[C@H]3OCC(=O)[C@H]32)cc1
RESULT: 5 to 10 µM

QUERY: Please give the documented Ki of CC(C)C[C@H](NC(=O)c1ccc(-c2csc(N3CCN(C)CC3)n2)cc1)C(=O)N1C[C@@H](Cl)[C@H]2OCC(=O)[C@H]21
RESULT: 1 to 5 µM

Now consider the entry below.
QUERY: Please give the documented Ki of CN1CCN(c2nc(-c3ccc(C(=O)N[C@H](C(=O)N4C[C@@H](Cl)[C@H]5OCC(=O)[C@H]54)C4CCCCC4)cc3)cs2)CC1
RESULT: 1 to 5 µM
